B1: STK38L (parent)
chain: NWKETLVFPPEVPISEKAKDLILR

- Variants of: B1
- assay_notes: protein stability index of a GFP-peptide fusion (GPS, HEK-293T) (PSI 1-6); higher = more stable;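 note: lentivirally expressed fusions sorted by FACS into six bins by GFP to DsRed ratio, PSI derived from sequencing read proportions per bin multiplied by bin number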
- experimental_setup: c terminus: a fixed tail appended
Readings of protein stability index for the listed variants
value_type: protein stability index

mutation_key | value_type | reported
W2L | protein stability index | 3.96
P10Y | protein stability index | 2.48
L21Q | protein stability index | 3.41
I14L | protein stability index | 2.88
V12P | protein stability index | 3.48
P9L | protein stability index | 2.32
V7K | protein stability index | 2.95
P10T | protein stability index | 3.35
L6E | protein stability index | 3.66
S15W | protein stability index | 2
K19P | protein stability index | 3.17
N1V | protein stability index | 2.41
E11R | protein stability index | 2.87
R24A | protein stability index | 3.09
A18E | protein stability index | 4.56
R24T | protein stability index | 3.59
S15V | protein stability index | 2.31
L23Q | protein stability index | 4.22
L6G | protein stability index | 1.5
L23M | protein stability index | 2.6
R24E | protein stability index | 3.57
E16Y | protein stability index | 2.5
